Assay: In vitro rat liver S9 stability assay, formation of tafamidis
Type: in vitro ADME
Conditions: rat liver S9, 37° C., 1 µM test compound
property.measured: Formation of tafamidis at 60 min

- Cn1ccnc1CCOC(=O)c1ccc2nc(-c3cc(Cl)cc(Cl)c3)oc2c1 [Compound 177]: D (D is ≥75%)
- Cn1nccc1COC(=O)c1ccc2nc(-c3cc(Cl)cc(Cl)c3)oc2c1 [Compound 127]: D (D is ≥75%)
- CN1CCC(CCOC(=O)c2ccc3nc(-c4cc(Cl)cc(Cl)c4)oc3c2)C1 (centres unmarked) [Compound 126]: A (A is <25%)
- CCNC(=O)c1ccc2nc(-c3cc(Cl)cc(Cl)c3)oc2c1 [Compound 183]: A (A is <25%)

Query (molecule): O=C(NCCF)c1ccc2nc(-c3cc(Cl)cc(Cl)c3)oc2c1 [Compound 88] ; field requested: Formation of tafamidis at 60 min
A (A is <25%)

Query (molecule): N#CCN1CCC(OC(=O)c2ccc3nc(-c4cc(Cl)cc(Cl)c4)oc3c2)C1 (centres unmarked) [Compound 176] ; field requested: Formation of tafamidis at 60 min
D (D is ≥75%)

Query (molecule): O=C(OCCCc1ncccn1)c1ccc2nc(-c3cc(Cl)cc(Cl)c3)oc2c1 [Compound 148] ; field requested: Formation of tafamidis at 60 min
D (D is ≥75%)

Query (molecule): Cn1ccc(COC(=O)c2ccc3nc(-c4cc(Cl)cc(Cl)c4)oc3c2)n1 [Compound 90] ; field requested: Formation of tafamidis at 60 min
D (D is ≥75%)

Query (molecule): O=C(OCc1ccncn1)c1ccc2nc(-c3cc(Cl)cc(Cl)c3)oc2c1 [Compound 131] ; field requested: Formation of tafamidis at 60 min
D (D is ≥75%)

Query (molecule): O=C(OCc1ccncc1)c1ccc2nc(-c3cc(Cl)cc(Cl)c3)oc2c1 [Compound 109] ; field requested: Formation of tafamidis at 60 min
C (C is ≥50 to <75%)

Query (molecule): O=C(OC1CCn2ccnc21)c1ccc2nc(-c3cc(Cl)cc(Cl)c3)oc2c1 (centres unmarked) [Compound 149] ; field requested: Formation of tafamidis at 60 min
D (D is ≥75%)

---

Test: In vitro rat plasma stability assay, formation of tafamidis
Assay type: in vitro ADME
Conditions: 37° C., 2 µM test compound
property.measured: Formation of tafamidis at 120 min

Example results:
• O=C(OCCn1ccnc1)c1ccc2nc(-c3cc(Cl)cc(Cl)c3)oc2c1 = B (B is ≥25 to <50%)
• CN1CCCC(OC(=O)c2ccc3nc(-c4cc(Cl)cc(Cl)c4)oc3c2)C1 (centres unmarked) = B (B is ≥25 to <50%)
• O=C(OC1CCCN(CC(F)F)C1)c1ccc2nc(-c3cc(Cl)cc(Cl)c3)oc2c1 (centres unmarked) = C (C is ≥50 to <75%)
• O=C(OCc1ncc[nH]1)c1ccc2nc(-c3cc(Cl)cc(Cl)c3)oc2c1 = C (C is ≥50 to <75%)
• CC(CN(C)C)OC(=O)c1ccc2nc(-c3cc(Cl)cc(Cl)c3)oc2c1 (single isomer, unassigned) [Compound 46] = B (B is ≥25 to <50%)
• O=C(OCCN1CCOCC1)c1ccc2nc(-c3cc(Cl)cc(Cl)c3)oc2c1 = B (B is ≥25 to <50%)

Now for another entry.
Query (compound): CCN1CCCC(OC(=O)c2ccc3nc(-c4cc(Cl)cc(Cl)c4)oc3c2)C1 (centres unmarked) ; field requested: Formation of tafamidis at 120 min
C (C is ≥50 to <75%)

---

Experiment: In vitro rat plasma stability assay, formation of tafamidis
Type: in vitro ADME
Conditions: 37° C., 2 µM test compound
Where a name gives a salt, the structure may show the parent alone.
property.measured: Formation of tafamidis at 120 min

Example results:
- CCN1CCC(OC(=O)c2ccc3nc(-c4cc(Cl)cc(Cl)c4)oc3c2)C1 (centres unmarked): C (C is ≥50 to <75%)
- CN1CC(OC(=O)c2ccc3nc(-c4cc(Cl)cc(Cl)c4)oc3c2)C(F)(F)C1 (centres unmarked): D (D is ≥75%)
- O=C(OCCC[P+](c1ccccc1)(c1ccccc1)c1ccccc1)c1ccc2nc(-c3cc(Cl)cc(Cl)c3)oc2c1.[Br-]: A (A is <25%)
- O=C(OCCN1CCCC1)c1ccc2nc(-c3cc(Cl)cc(Cl)c3)oc2c1: B (B is ≥25 to <50%)
- CC(C)(C)OC(=O)N[C@H](Cc1cccc(OC(=O)c2ccc3nc(-c4cc(Cl)cc(Cl)c4)oc3c2)c1)C(=O)OCc1ccccc1: B (B is ≥25 to <50%)

Query (compound): CN1CCN(CCCOC(=O)c2ccc3nc(-c4cc(Cl)cc(Cl)c4)oc3c2)CC1 ; field requested: Formation of tafamidis at 120 min
C (C is ≥50 to <75%)

Query (compound): Cn1ccnc1CCOC(=O)c1ccc2nc(-c3cc(Cl)cc(Cl)c3)oc2c1 ; field requested: Formation of tafamidis at 120 min
D (D is ≥75%)

Query (compound): CNCCOC(=O)c1ccc2nc(-c3cc(Cl)cc(Cl)c3)oc2c1 [Compound 9, hydrochloride] ; field requested: Formation of tafamidis at 120 min
A (A is <25%)

---

Test: In vivo rat PK: tafamidis in plasma, CSF and brain
Parameters: species or system Male Sprague-Dawley (SD) rats
Details: male, Sprague-Dawley, CSF and plasma, oral dose of 2 mg/kg of tafamidis, reference, read-out: CSF to plasma ratio over 24 hrs
property.measured: Kp

Query (compound): O=C(O)c1ccc2nc(-c3cc(Cl)cc(Cl)c3)oc2c1 [tafamidis] ; field requested: Kp
~0.01

---

Assay: In vitro rat plasma stability assay, formation of tafamidis
Type: in vitro ADME
Conditions: 37° C., 2 µM test compound
property.measured: Formation of tafamidis at 120 min

Example results:
- CC(C)N1CCC(OC(=O)c2ccc3nc(-c4cc(Cl)cc(Cl)c4)oc3c2)C1 (centres unmarked): B (B is ≥25 to <50%)
- CN(C)CCCOC(=O)c1ccc2nc(-c3cc(Cl)cc(Cl)c3)oc2c1: A (A is <25%)
- O=C(OCCN1CCS(=O)(=O)CC1)c1ccc2nc(-c3cc(Cl)cc(Cl)c3)oc2c1: B (B is ≥25 to <50%)
- O=C(OCCCn1ccnc1)c1ccc2nc(-c3cc(Cl)cc(Cl)c3)oc2c1: B (B is ≥25 to <50%)
- C[N+](C)(C)CCOC(=O)c1ccc2nc(-c3cc(Cl)cc(Cl)c3)oc2c1.[Cl-]: A (A is <25%)
- O=C(OCCCN1CCNCC1)c1ccc2nc(-c3cc(Cl)cc(Cl)c3)oc2c1: D (D is ≥75%)

Query (compound): CC(C)(C)OC(=O)N1CCC(OC(=O)c2ccc3nc(-c4cc(Cl)cc(Cl)c4)oc3c2)C1 (centres unmarked) ; field requested: Formation of tafamidis at 120 min
B (B is ≥25 to <50%)

Query (compound): CC1CCC(OC(=O)c2ccc3nc(-c4cc(Cl)cc(Cl)c4)oc3c2)C1 (centres unmarked) ; field requested: Formation of tafamidis at 120 min
A (A is <25%)

Query (compound): CCN(CC)CCCOC(=O)c1ccc2nc(-c3cc(Cl)cc(Cl)c3)oc2c1 ; field requested: Formation of tafamidis at 120 min
B (B is ≥25 to <50%)

---

Test: In vivo rat PK: tafamidis in plasma, CSF and brain
Design: species or system Male Sprague-Dawley (SD) rats
Conditions: male, Sprague-Dawley, brain and plasma, oral dose of 2 mg/kg of tafamidis, reference, read-out: brain to plasma ratio at 24 hrs
property.measured: Kp at 24 h

Query (compound): O=C(O)c1ccc2nc(-c3cc(Cl)cc(Cl)c3)oc2c1 ; field requested: Kp at 24 h
~0.02

---

Assay: In vitro rat plasma stability assay, formation of tafamidis
Type: in vitro ADME
Conditions: 37° C., 2 µM test compound
Where a name gives a salt, the structure may show the parent alone.
property.measured: Formation of tafamidis at 120 min

Example results:
- O=C(OCCCC1CCOC1)c1ccc2nc(-c3cc(Cl)cc(Cl)c3)oc2c1 (centres unmarked): D (D is ≥75%)
- CN1CCC(OC(=O)c2ccc3nc(-c4cc(Cl)cc(Cl)c4)oc3c2)C1 (centres unmarked): D (D is ≥75%)
- O=C(OC1CCOC1=O)c1ccc2nc(-c3cc(Cl)cc(Cl)c3)oc2c1 (centres unmarked): B (B is ≥25 to <50%)
- O=C(OCCCN1CCOCC1)c1ccc2nc(-c3cc(Cl)cc(Cl)c3)oc2c1: D (D is ≥75%)
- CC(C)(C)N1CCC(OC(=O)c2ccc3nc(-c4cc(Cl)cc(Cl)c4)oc3c2)C1 (centres unmarked): B (B is ≥25 to <50%)
- O=C(OCCCN1CCS(=O)(=O)CC1)c1ccc2nc(-c3cc(Cl)cc(Cl)c3)oc2c1: D (D is ≥75%)
- O=C(OC1CCOC1)c1ccc2nc(-c3cc(Cl)cc(Cl)c3)oc2c1 (centres unmarked): D (D is ≥75%)
- CC(CCN(C)C)OC(=O)c1ccc2nc(-c3cc(Cl)cc(Cl)c3)oc2c1 (centres unmarked) [Compound 49, hydrochloride]: C (C is ≥50 to <75%)

Query (compound): CN1CCCC1COC(=O)c1ccc2nc(-c3cc(Cl)cc(Cl)c3)oc2c1 (centres unmarked) ; field requested: Formation of tafamidis at 120 min
D (D is ≥75%)

Query (compound): N[C@@H](Cc1cccc(OC(=O)c2ccc3nc(-c4cc(Cl)cc(Cl)c4)oc3c2)c1)C(=O)O [Compound 28, hydrochloride] ; field requested: Formation of tafamidis at 120 min
A (A is <25%)
